Assay: Half life in human liver microsomes
Type: ADME, Microsome
Experimental readout: half-life (min)
Answers are plain numbers, in min.

Supply measured half-life of O=C(Nc1sc2c(c1C(=O)N1CC(F)(F)C1)CCOC2)c1c(F)cccc1C(F)(F)F in your reply.
25.4

---

Biological target: Cannabinoid receptor 1 (Homo sapiens, UniProt P21554)
Sequence (P21554 whole entry): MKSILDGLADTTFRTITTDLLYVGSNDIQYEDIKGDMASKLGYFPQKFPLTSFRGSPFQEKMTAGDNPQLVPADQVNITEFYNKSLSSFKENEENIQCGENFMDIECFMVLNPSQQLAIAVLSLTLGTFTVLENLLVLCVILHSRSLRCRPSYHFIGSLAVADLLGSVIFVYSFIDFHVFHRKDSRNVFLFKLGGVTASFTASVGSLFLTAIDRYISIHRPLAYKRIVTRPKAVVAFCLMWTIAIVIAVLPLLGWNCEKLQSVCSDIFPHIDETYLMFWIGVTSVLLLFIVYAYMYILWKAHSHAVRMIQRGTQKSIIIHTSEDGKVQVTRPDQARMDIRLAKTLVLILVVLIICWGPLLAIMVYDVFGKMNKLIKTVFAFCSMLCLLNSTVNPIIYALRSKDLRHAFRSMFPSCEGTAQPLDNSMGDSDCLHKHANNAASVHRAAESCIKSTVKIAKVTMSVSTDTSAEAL
Test: Agonist activity at human CB1 receptor after 4 hrs by luciferase reporter gene assay relative to control
Type: functional
The following ranges of Efficacy define the classes used here: low: < 80%; medium: ≥ 80% and < 90%; high: ≥ 90%

Compound: O=C(Nc1sc2c(c1C(=O)N1CCOCC1)CCOC2)c1c(F)cccc1C(F)(F)F
Category: low
--
Compound: O=C(Nc1sc2c(c1C(=O)N1CC(F)(F)C1)CCOC2)c1ccccc1C(F)(F)F
Category: medium
--
Compound: O=C(Nc1sc2c(c1C(=O)N1CC(F)(F)C1)CCC(F)(F)C2)c1ccccc1Cl
Category: high
--
Compound: COCCNC(=O)c1c(NC(=O)c2ccccc2Cl)sc2c1CCC(F)(F)C2
Category: high

Which bin should I file COC1CN(C(=O)c2c(NC(=O)CC(C)(C)C)sc3c2CCCC3)C1 under?
low

Which bin should I file CC1(C)CCc2sc(NC(=O)c3ccccc3Cl)c(C(=O)NCC3CC3)c21 under?
medium

Which bin should I file O=C(Nc1sc2c(c1C(=O)N1CCOCC1)CCCC2)c1ccccc1Cl under?
low

FYI, the data here is from ChEMBL document CHEMBL2203203.
